System: corn (Zea mays)
Test: Test A1 postemergence, corn
Type: in vivo
Conditions: Postemergence, 125 g ai/ha; 0 to 100 scale
From the text: […]
measured metric: Plant response rating, Corn

| molecule | recorded result |
| --- | --- |
| CCC1ON=C(c2cc(N(COC(=O)C(C)(C)C)S(=O)(=O)C(F)(F)F)c(C)cc2C)C1CC (stereo not shown) | 50 |
| CCCCOC1CC(c2cc(NS(=O)(=O)C(F)(F)F)c(C)cc2C)=NO1 (stereo not shown) | 0 |
| CCOC(=O)N(c1cc(C(=O)N2CCOCC2)c(C)c(C)c1C)S(=O)(=O)C(F)(F)F | 30 |
| C#CCN(C)C(=O)c1cc(N(COC(=O)C(C)(C)C)S(=O)(=O)C(F)(F)F)c(C)c(C)c1C | 90 |

* * *

Tested on: pigweed (Amaranthus retroflexus)
Assay: Test A postemergence, pigweed
Format: in vivo
Details: Postemergence, 31 g ai/ha; visual injury on 0 to 100 scale (0 no effect, 100 complete control), approx. 10 days
Excerpt: Seeds of plant species selected from barnyardgrass (Echinochloa crus-galli), kochia (Bassia scoparia), ragweed (common ragweed, Ambrosia artemisiifolia), Ryegrass, Italian (Italian ryegrass, Lolium multiflorum), Foxtail, Giant (giant foxtail, Setaria faberi), and pigweed (Amaranthus retroflexus) were planted into a blend of loam soil and sand and treated preemergence with a directed soil spray using test chemicals formulated in a non-phytotoxic solvent mixture which included a surfactant. […]
Quick rule: Plant response rating, Pigweed of at least 30 means rule met, below that means rule not met.

| compound | tgt | class label |
| --- | --- | --- |
| Cc1cc(C)c(C(=O)N2CCCC(F)C2)cc1NS(=O)(=O)C(F)(F)F (stereo not drawn) | pigweed (Amaranthus retroflexus) | rule met |
| Cc1cc(C)c(N(S(=O)(=O)C(F)(F)F)S(=O)(=O)C(F)(F)F)cc1N1CC2(CCOCC2)OC1=O | pigweed (Amaranthus retroflexus) | rule met |
| Cc1cc(C)c(N(COC(=O)c2ccccc2)S(=O)(=O)C(F)(F)F)cc1C1=NOC2(CCCC2)C1 | pigweed (Amaranthus retroflexus) | rule not met |
| Cc1c(C(=O)N2CCOCC2)cc(N(S(=O)(=O)C(F)(F)F)S(=O)(=O)C(F)(F)F)c(C)c1F | pigweed (Amaranthus retroflexus) | rule met |

* * *

Test system: galium (catchweed bedstraw, Galium aparine)
Assay: Test A1 postemergence, galium
Type: in vivo
Details: Postemergence, 125 g ai/ha; 0 to 100 scale (0 no effect, 100 complete control); 10 days
Measured Plant response rating, Galium of individual entries
measured metric: Plant response rating, Galium

| compound | measured metric | recorded result |
| --- | --- | --- |
| Cc1cc(C)c(N(COC(=O)C(C)(C)C)S(=O)(=O)C(F)(F)F)cc1N1CCC2(CCC(C)CC2)C1=O (stereo not drawn) [Compound 401] | Plant response rating, Galium | 80 |
| Cc1cc(C)c(N(COC(=O)C(C)(C)C)S(=O)(=O)C(F)(F)F)cc1N1CCC2(CCC(C(F)(F)F)CC2)C1=O (stereo not drawn) [Compound 403] | Plant response rating, Galium | 100 |
| Cc1cc(C)c(N(S(=O)(=O)C(F)(F)F)S(=O)(=O)C(F)(F)F)cc1N1CCC2(CCC(C(F)(F)F)CC2)C1=O (stereo not drawn) [Compound 399] | Plant response rating, Galium | 90 |

* * *

Measured Plant response rating, Soybean of individual entries
Tested on: soybean (Glycine max)
Test: Test A1 preemergence, soybean
Assay type: in vivo
Details: 125 g ai/ha, 0 to 100 scale, 0 no effect, 100 complete control
measured metric: Plant response rating, Soybean

| compound | recorded result |
| --- | --- |
| Cc1c(C(=O)N2C[C@@H](C)O[C@@H](C)C2)cc(N(COC(=O)C(C)(C)C)S(=O)(=O)C(F)(F)F)c(C)c1C [Compound 331] | 10 |
| Cc1c(NS(=O)(=O)C(F)(F)F)cc(C(=O)N2CCOCC2)c(C)c1Cl [Compound 290] | 0 |
| Cc1cc(C)c(C2=NOC3CCCCCC23)cc1NS(=O)(=O)C(F)(F)F (centres unmarked) [Compound 292] | 40 |
| Cc1ccc(C2=NOC3CCCC23)cc1NS(=O)(=O)C(F)(F)F (centres unmarked) [Compound 377] | 0 |
| CCc1cc(C)c(NS(=O)(=O)C(F)(F)F)cc1C1=NOC2CCCC12 (centres unmarked) [Compound 305] | 40 |
| Cc1cc(C)c(N(COC(=O)C(C)(C)C)S(=O)(=O)C(F)(F)F)cc1C(=O)N1CCC(c2ccccc2)CC1 [Compound 364] | 0 |
| Cc1cc(C)c(C2=NOC3(C)CCCC23)cc1NS(=O)(=O)C(F)(F)F (centres unmarked) [Compound 340] | 90 |
| CCOC(=O)N(c1cc(C(=O)N2C[C@@H](C)O[C@@H](C)C2)c(C)c(C)c1C)S(=O)(=O)C(F)(F)F [Compound 332] | 70 |
| Cc1cc(C)c(N(S(=O)(=O)C(F)(F)F)S(=O)(=O)C(F)(F)F)cc1C1=NOC2COCC12 (centres unmarked) [Compound 296] | 30 |
| Cc1cc(C)c(N(COC(=O)OC(C)C)S(=O)(=O)C(F)(F)F)cc1C1=NOC2CCCC12 (centres unmarked) [Compound 314] | 40 |
| Cc1cc(F)c(NS(=O)(=O)C(F)(F)F)cc1C1=NOC2(CCCC2)C1 [Compound 303] | 0 |
| CCC1CC(c2cc(N(COC(=O)C(C)(C)C)S(=O)(=O)C(F)(F)F)c(C)cc2C)=NO1 (centres unmarked) [Compound 376] | 0 |
| Cc1c(C2=NO[C@@H]3CCC[C@H]23)cc(N(COC(=O)C(C)(C)C)S(=O)(=O)C(F)(F)F)c(C)c1C [Compound 336] | 0 |
| CCC1ON=C(c2cc(N(C(=O)OCC(C)C)S(=O)(=O)C(F)(F)F)c(C)cc2C)C1CC (centres unmarked) [Compound 345] | 0 |
| Cc1cc(C)c(N(COC(=O)C(C)(C)C)S(=O)(=O)C(F)(F)F)cc1C(=O)N1CCC(F)(F)CC1 [Compound 350] | 0 |
| CCC1ON=C(c2cc(N(C(=O)OCC(C)C)S(=O)(=O)C(F)(F)F)c(C)cc2C)C1CC (centres unmarked) [Compound 348] | 40 |
| Cc1cc(C)c(C2=NOC(OCC(C)C)C2)cc1NS(=O)(=O)C(F)(F)F (centres unmarked) [Compound 322] | 0 |
| COCC1CC(c2cc(NS(=O)(=O)C(F)(F)F)c(C)cc2C)=NO1 (centres unmarked) [Compound 319] | 30 |
| Cc1c(C(=O)N2CCC(F)CC2)cc(N(COC(=O)C(C)(C)C)S(=O)(=O)C(F)(F)F)c(C)c1C [Compound 361] | 20 |
| Cc1cc(C)c(N(S(=O)(=O)C(F)(F)F)S(=O)(=O)C(F)(F)F)cc1N1CCC2(CCC(C(F)(F)F)CC2)C1=O (centres unmarked) [Compound 399] | 40 |
| Cc1cc(C2CC2)c(NS(=O)(=O)C(F)(F)F)cc1C1=NOC2(CCCC2)C1 [Compound 313] | 0 |
| Cc1cc(C)c(N(COC(=O)C(C)(C)C)S(=O)(=O)C(F)(F)F)cc1C1=NOC2OCCC12 (centres unmarked) [Compound 352] | 40 |
| COCC1CC(c2cc(N(COC(=O)C(C)(C)C)S(=O)(=O)C(F)(F)F)c(C)cc2C)=NO1 (centres unmarked) [Compound 338] | 20 |
| CCOC(=O)N(c1cc(C(=O)N2CCC(F)(F)CC2)c(C)cc1C)S(=O)(=O)C(F)(F)F [Compound 351] | 30 |
| CCOC(=O)N(c1cc(C(=O)N2CCSCC2)c(C)c(C)c1C)S(=O)(=O)C(F)(F)F [Compound 286] | 40 |
| Cc1cc(C)c(N(COC(=O)C(C)(C)C)S(=O)(=O)C(F)(F)F)cc1C1=NOC2(C)CCCC12 (centres unmarked) [Compound 341] | 0 |
| Cc1cc(C)c(N2CCC3(CCC(C(F)(F)F)CC3)C2=O)cc1NS(=O)(=O)C(F)(F)F (centres unmarked) [Compound 400] | 50 |
| Cc1cc(C)c(N(COC(=O)OC(C)(C)C)S(=O)(=O)C(F)(F)F)cc1C1=NOC2CCCC12 (centres unmarked) [Compound 316] | 0 |
| Cc1cc(C)c(N(COC(=O)C(C)(C)C)S(=O)(=O)C(F)(F)F)cc1N1CCC2(CCC(C)CC2)C1=O (centres unmarked) [Compound 401] | 0 |
| CCCCOC1CC(c2cc(NS(=O)(=O)C(F)(F)F)c(C)cc2C)=NO1 (centres unmarked) [Compound 323] | 0 |
| COC1CCC2(CC1)CCN(c1cc(NS(=O)(=O)C(F)(F)F)c(C)cc1C)C2=O (centres unmarked) [Compound 398] | 90 |
| Cc1cc(Br)c(NS(=O)(=O)C(F)(F)F)cc1C1=NOC2(CCCC2)C1 [Compound 309] | 0 |
